test system: Staphylococcus aureus; assay: Antibacterial activity against Staphylococcus aureus UC 9218 in presence of 10% human serum; type: functional
reported.endpoint: MIC

[[record]]
entry_smiles = "Cc1nn(-c2ccccc2)nc1C(=O)Nc1ccc(C#N)cc1C(=O)O"
recorded_measurement = "> 128 µg/mL"


Quick request: MIC for each listed item, please.
1. N#Cc1ccc(NC(=O)c2cc3ccccc3o2)c(C(=O)O)c1
2. N#Cc1ccc(NC(=O)c2cnccn2)c(C(=O)O)c1
3. N#Cc1ccc(NC(=O)c2coc(-c3ccccc3)n2)c(C(=O)O)c1
4. CCOc1nc(SCc2ccccc2)ncc1C(=O)Nc1ccc(C#N)cc1C(=O)O
5. N#Cc1ccc(NC(=O)c2cc3cc(-c4ccccc4)oc3cn2)c(C(=O)O)c1

A.
1. 32 µg/mL
2. > 128 µg/mL
3. > 128 µg/mL
4. > 128 µg/mL
5. > 128 µg/mL

The measured values listed here are drawn from ChEMBL document CHEMBL1139189.
